Source listed as PubChem BioAssay (EPA / NIEHS).

molecular target: Peroxisome proliferator-activated receptor gamma (Homo sapiens) (UniProt P37231); test: ATG_PPARg_TRANS: Attagene TRANS-FACTORIAL HepG2 Assay for human Peroxisome Proliferator-activated Receptor-gamma (PPARg) (AID 2283007)
Sequence (P37231 whole entry, looked up): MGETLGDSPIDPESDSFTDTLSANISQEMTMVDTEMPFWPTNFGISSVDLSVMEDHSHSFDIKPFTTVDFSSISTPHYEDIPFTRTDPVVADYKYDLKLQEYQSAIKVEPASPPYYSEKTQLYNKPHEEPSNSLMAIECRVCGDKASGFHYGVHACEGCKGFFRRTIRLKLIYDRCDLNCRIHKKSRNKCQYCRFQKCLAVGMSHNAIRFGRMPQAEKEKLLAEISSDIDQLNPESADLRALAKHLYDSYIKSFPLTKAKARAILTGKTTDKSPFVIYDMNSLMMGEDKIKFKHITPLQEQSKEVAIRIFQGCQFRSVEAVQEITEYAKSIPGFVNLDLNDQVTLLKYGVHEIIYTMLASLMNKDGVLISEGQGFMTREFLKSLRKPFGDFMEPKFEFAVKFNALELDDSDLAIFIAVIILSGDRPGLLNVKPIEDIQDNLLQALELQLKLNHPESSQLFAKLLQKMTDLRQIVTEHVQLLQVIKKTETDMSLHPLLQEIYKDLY
Records with an inconclusive call do not appear. Calls of active or inactive are those of the source. The calls were made as follows: active = hit-call score of the fitted dose curve at least 0.9, where 1 is the maximum; inconclusive = response in the unintended direction; inactive = score below 0.9.
Outcomes: Y (active), N (inactive)

[
  {
    "compound": "CC(C)c1cccc(C(C)C)c1N1C(=O)c2ccc(O)cc2C1=O",
    "systemTested": "Peroxisome proliferator-activated receptor gamma (Homo sapiens) (UniProt P37231)",
    "assignedClass": "N"
  },
  {
    "compound": "CC(C)(O)c1coc(S(=O)(=O)NC(=O)Nc2c3c(cc4c2CCC4)CCC3)c1",
    "systemTested": "Peroxisome proliferator-activated receptor gamma (Homo sapiens) (UniProt P37231)",
    "assignedClass": "Y"
  },
  {
    "compound": "O=C(OC[C@H]1O[C@@H](OC(=O)c2cc(O)c(O)c(OC(=O)c3cc(O)c(O)c(O)c3)c2)[C@H](OC(=O)c2cc(O)c(O)c(OC(=O)c3cc(O)c(O)c(O)c3)c2)[C@@H](OC(=O)c2cc(O)c(O)c(OC(=O)c3cc(O)c(O)c(O)c3)c2)[C@@H]1OC(=O)c1cc(O)c(O)c(OC(=O)c2cc(O)c(O)c(O)c2)c1)c1cc(O)c(O)c(OC(=O)c2cc(O)c(O)c(O)c2)c1",
    "systemTested": "Peroxisome proliferator-activated receptor gamma (Homo sapiens) (UniProt P37231)",
    "assignedClass": "N"
  },
  {
    "compound": "CCOC(=O)CC(CC(=O)OCC)(OC(C)=O)C(=O)OCC",
    "systemTested": "Peroxisome proliferator-activated receptor gamma (Homo sapiens) (UniProt P37231)",
    "assignedClass": "Y"
  },
  {
    "compound": "Cn1c(=O)cc(Oc2ccc(F)cc2F)c2cnc(NCC(C)(C)O)nc21",
    "systemTested": "Peroxisome proliferator-activated receptor gamma (Homo sapiens) (UniProt P37231)",
    "assignedClass": "Y"
  },
  {
    "compound": "Nc1ccc(Nc2ccccc2)cc1",
    "systemTested": "Peroxisome proliferator-activated receptor gamma (Homo sapiens) (UniProt P37231)",
    "assignedClass": "N"
  },
  {
    "compound": "CNCc1ccc(NC(=O)c2c[nH]c3c2C(=O)CCC3)cc1",
    "systemTested": "Peroxisome proliferator-activated receptor gamma (Homo sapiens) (UniProt P37231)",
    "assignedClass": "N"
  },
  {
    "compound": "O=c1[nH]c2ccc(S(=O)CCN3CCC(Cc4ccc(F)cc4)CC3)cc2o1 (stereo not drawn)",
    "systemTested": "Peroxisome proliferator-activated receptor gamma (Homo sapiens) (UniProt P37231)",
    "assignedClass": "Y"
  },
  {
    "compound": "Oc1ccc2c(c1)-c1ccccc1C2",
    "systemTested": "Peroxisome proliferator-activated receptor gamma (Homo sapiens) (UniProt P37231)",
    "assignedClass": "N"
  },
  {
    "compound": "CCc1cc(SCc2sc(-c3ccc(C(F)(F)F)cc3)nc2CN2CCN(c3ccc(OC)cc3)CC2)ccc1OCC(=O)O",
    "systemTested": "Peroxisome proliferator-activated receptor gamma (Homo sapiens) (UniProt P37231)",
    "assignedClass": "Y"
  },
  {
    "compound": "COC(=O)c1c(Cl)c(Cl)c(C(=O)OC)c(Cl)c1Cl",
    "systemTested": "Peroxisome proliferator-activated receptor gamma (Homo sapiens) (UniProt P37231)",
    "assignedClass": "Y"
  },
  {
    "compound": "CCn1nc(Cc2ccccc2)cc1C1CCN(C[C@H]2C[C@H](N(C)[C@@H](C(=O)O)C(C)C)C[C@@H]2c2cccc(F)c2)CC1",
    "systemTested": "Peroxisome proliferator-activated receptor gamma (Homo sapiens) (UniProt P37231)",
    "assignedClass": "N"
  },
  {
    "compound": "CCC(C)(C)C(=O)O[C@H]1C[C@@H](C)C=C2C=C[C@H](C)[C@H](CC[C@@H]3C[C@@H](O)CC(=O)O3)[C@H]21",
    "systemTested": "Peroxisome proliferator-activated receptor gamma (Homo sapiens) (UniProt P37231)",
    "assignedClass": "N"
  },
  {
    "compound": "CCCCCCc1ccc(O)cc1O",
    "systemTested": "Peroxisome proliferator-activated receptor gamma (Homo sapiens) (UniProt P37231)",
    "assignedClass": "Y"
  },
  {
    "compound": "O=c1n(CC2CO2)c(=O)n(CC2CO2)c(=O)n1CC1CO1 (stereo not drawn)",
    "systemTested": "Peroxisome proliferator-activated receptor gamma (Homo sapiens) (UniProt P37231)",
    "assignedClass": "N"
  },
  {
    "compound": "Clc1nc(Cl)c(Cl)c(Cl)c1Cl",
    "systemTested": "Peroxisome proliferator-activated receptor gamma (Homo sapiens) (UniProt P37231)",
    "assignedClass": "Y"
  },
  {
    "compound": "O=P(OC(CCl)CCl)(OC(CCl)CCl)OC(CCl)CCl",
    "systemTested": "Peroxisome proliferator-activated receptor gamma (Homo sapiens) (UniProt P37231)",
    "assignedClass": "N"
  },
  {
    "compound": "O=C(NS(=O)(=O)/C=C/c1ccccc1)c1ccc(F)cc1Cl",
    "systemTested": "Peroxisome proliferator-activated receptor gamma (Homo sapiens) (UniProt P37231)",
    "assignedClass": "Y"
  }
]
